Biological target: hT2R64 (Homo sapiens (Human))
Sequence (P59538 whole entry): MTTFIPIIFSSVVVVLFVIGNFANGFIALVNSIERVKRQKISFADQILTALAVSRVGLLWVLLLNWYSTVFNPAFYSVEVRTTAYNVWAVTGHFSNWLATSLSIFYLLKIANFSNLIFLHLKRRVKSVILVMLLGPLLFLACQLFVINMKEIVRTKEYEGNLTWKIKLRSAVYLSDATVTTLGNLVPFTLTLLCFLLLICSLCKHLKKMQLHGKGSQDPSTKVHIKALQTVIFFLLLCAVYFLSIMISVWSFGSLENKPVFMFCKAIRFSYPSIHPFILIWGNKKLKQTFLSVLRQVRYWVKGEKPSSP
Test: hT2R panel inhibition, transient HEK293 G16g44, agonist Aristolochic Acid 1 μM
Format: cell-based
Conditions: HEK293, compound at 25 μM; receptor activated to EC80 with the corresponding agonist; read-out: screening result against bitter receptor 64
experimentalReadout: inhibition at 25 µM

Provide the documented inhibition at 25 µM with hT2R64 (Homo sapiens (Human)) as the system for COc1ccc(CN(Cc2ccoc2)S(=O)(=O)c2ccc(C(=O)O)cc2)cc1 [Example 5-27]
60 to 80%

Provide the documented inhibition at 25 µM with hT2R64 (Homo sapiens (Human)) as the system for O=C(O)c1ccc(CN(Cc2ccc(F)cc2)S(=O)(=O)c2ccc(O)cc2)cc1 [Example 5-107]
60 to 80%

Provide the documented inhibition at 25 µM with hT2R64 (Homo sapiens (Human)) as the system for COc1ccc(CN(CC2CCCCC2)S(=O)(=O)c2ccc(C(=O)O)cc2)cc1 [Example 5-23]
60 to 80%

Provide the documented inhibition at 25 µM with hT2R64 (Homo sapiens (Human)) as the system for COc1ccc(CN(Cc2ccco2)S(=O)(=O)c2ccc(C(=O)O)cc2)cc1 [Example 5-2]
60 to 80%

Provide the documented inhibition at 25 µM with hT2R64 (Homo sapiens (Human)) as the system for COc1ccc(CN(Cc2ccccc2)S(=O)(=O)c2ccccc2C(=O)O)cc1 [Example 5-60]
20 to 40%

Provide the documented inhibition at 25 µM with hT2R64 (Homo sapiens (Human)) as the system for COc1ccc(CN(Cc2ccccc2)S(=O)(=O)c2ccc(C(=O)O)cc2)c(OC)c1 [Example 5-13]
60 to 80%

Provide the documented inhibition at 25 µM with hT2R64 (Homo sapiens (Human)) as the system for COc1ccc(CN(Cc2ccc(OC)c(OC)c2)S(=O)(=O)c2ccc(C(=O)O)cc2)cc1 [Example 5-40]
60 to 80%

Provide the documented inhibition at 25 µM with hT2R64 (Homo sapiens (Human)) as the system for Cc1ccc(CN(Cc2ccccc2)S(=O)(=O)c2ccc(C(=O)O)cc2)cc1 [Example 5-70]
20 to 40%

Provide the documented inhibition at 25 µM with hT2R64 (Homo sapiens (Human)) as the system for CC(=O)Nc1ccc(S(=O)(=O)N(Cc2ccccc2)CC2CCC(C(=O)O)CC2)cc1 (stereo not shown) [Example 5-21]
20 to 40%

Provide the documented inhibition at 25 µM with hT2R64 (Homo sapiens (Human)) as the system for O=C(O)c1ccc(S(=O)(=O)N(Cc2ccccc2)Cc2cccc(Cl)c2)cc1 [Example 5-84]
20 to 40%

Provide the documented inhibition at 25 µM with hT2R64 (Homo sapiens (Human)) as the system for COc1ccc(CCN(Cc2ccccc2)S(=O)(=O)c2ccc(C(=O)O)cc2)cc1 [Example 5-81]
40 to 60%

Provide the documented inhibition at 25 µM with hT2R64 (Homo sapiens (Human)) as the system for CN(Cc1ccccc1)S(=O)(=O)c1ccc(C(=O)O)cc1 [Example 5-55]
40 to 60%

Provide the documented inhibition at 25 µM with hT2R64 (Homo sapiens (Human)) as the system for COc1ccc(CN(C(C)c2ccccc2)S(=O)(=O)c2ccc(C(=O)O)cc2)cc1 (stereo not shown) [Example 5-95]
60 to 80%

Provide the documented inhibition at 25 µM with hT2R64 (Homo sapiens (Human)) as the system for COc1ccccc1CN(Cc1ccccc1)S(=O)(=O)c1ccc(C(=O)O)cc1 [Example 5-71]
20 to 40%

Provide the documented inhibition at 25 µM with hT2R64 (Homo sapiens (Human)) as the system for COc1ccc(CN(Cc2cccs2)S(=O)(=O)c2ccc(C(=O)O)cc2)cc1 [Example 5-61]
20 to 40%

Provide the documented inhibition at 25 µM with hT2R64 (Homo sapiens (Human)) as the system for CCN(Cc1ccc(OC)cc1)S(=O)(=O)c1ccc(C(=O)O)cc1 [Example 5-4]
> 80%

Provide the documented inhibition at 25 µM with hT2R64 (Homo sapiens (Human)) as the system for O=C(O)C1CCC(CN(Cc2ccc(F)cc2)S(=O)(=O)Cc2ccccc2)CC1 (stereo not shown) [Example 5-24]
60 to 80%

Provide the documented inhibition at 25 µM with hT2R64 (Homo sapiens (Human)) as the system for O=C(O)c1ccc(S(=O)(=O)N(Cc2ccccc2)Cc2ccccc2Cl)cc1 [Example 5-83]
20 to 40%

Provide the documented inhibition at 25 µM with hT2R64 (Homo sapiens (Human)) as the system for O=C(O)c1ccc(S(=O)(=O)N(Cc2ccccc2)Cc2ccc(Cl)cc2)cc1 [Example 5-77]
40 to 60%

Provide the documented inhibition at 25 µM with hT2R64 (Homo sapiens (Human)) as the system for COc1ccc(CN(Cc2ccsc2)S(=O)(=O)c2ccc(C(=O)O)cc2)cc1 [Example 5-62]
40 to 60%

Provide the documented inhibition at 25 µM with hT2R64 (Homo sapiens (Human)) as the system for O=C(O)c1ccc(S(=O)(=O)N(Cc2ccccc2)Cc2ccc3c(c2)OCO3)cc1 [Example 5-93]
> 80%

Provide the documented inhibition at 25 µM with hT2R64 (Homo sapiens (Human)) as the system for O=C(O)c1ccc(S(=O)(=O)N(Cc2ccccc2)Cc2cccc(F)c2)cc1 [Example 5-79]
60 to 80%

Provide the documented inhibition at 25 µM with hT2R64 (Homo sapiens (Human)) as the system for CCCOc1ccc(CN(Cc2ccco2)S(=O)(=O)c2ccc(C(=O)O)cc2)cc1 [Example 5-8]
> 80%

Provide the documented inhibition at 25 µM with hT2R64 (Homo sapiens (Human)) as the system for COc1ccc(CN(Cc2cccnc2)S(=O)(=O)c2ccc(C(=O)O)cc2)cc1 [Example 5-88]
20 to 40%

Provide the documented inhibition at 25 µM with hT2R64 (Homo sapiens (Human)) as the system for COc1ccc(CN(Cc2cccc(OC)c2)S(=O)(=O)c2ccc(C(=O)O)cc2)cc1 [Example 5-34]
60 to 80%

Provide the documented inhibition at 25 µM with hT2R64 (Homo sapiens (Human)) as the system for COc1ccc(CN(Cc2ccc(C(=O)O)cc2)S(=O)(=O)c2ccc(O)cc2)cc1 [Example 5-44]
40 to 60%

Provide the documented inhibition at 25 µM with hT2R64 (Homo sapiens (Human)) as the system for COc1ccc(CN(Cc2ccc(C)o2)S(=O)(=O)c2ccc(C(=O)O)cc2)cc1 [Example 5-63]
40 to 60%

Provide the documented inhibition at 25 µM with hT2R64 (Homo sapiens (Human)) as the system for COc1ccc(CN(Cc2ccc(OC)cc2)S(=O)(=O)c2ccc(C(=O)O)cc2)cc1 [Example 5-30]
> 80%

Provide the documented inhibition at 25 µM with hT2R64 (Homo sapiens (Human)) as the system for COc1ccc(CNS(=O)(=O)c2ccc(C(=O)O)cc2)cc1 [Example 5-56]
20 to 40%

Provide the documented inhibition at 25 µM with hT2R64 (Homo sapiens (Human)) as the system for COc1ccc(CN(Cc2cccc(Cl)c2)S(=O)(=O)c2ccc(C(=O)O)cc2)cc1 [Example 5-14]
> 80%

Provide the documented inhibition at 25 µM with hT2R64 (Homo sapiens (Human)) as the system for O=C(O)c1ccc(CN(Cc2cccc(F)c2)S(=O)(=O)c2ccccc2)cc1 [Example 5-104]
> 80%

Provide the documented inhibition at 25 µM with hT2R64 (Homo sapiens (Human)) as the system for O=C(O)c1ccc(S(=O)(=O)N(Cc2ccccc2)Cc2ccccc2)cc1 [Example 5-28, 4-(N,N-dibenzylsulfamoyl)benzoic acid]
> 80%

Provide the documented inhibition at 25 µM with hT2R64 (Homo sapiens (Human)) as the system for COc1ccc(CN(Cc2ccccn2)S(=O)(=O)c2ccc(C(=O)O)cc2)cc1 [Example 5-87]
20 to 40%

Provide the documented inhibition at 25 µM with hT2R64 (Homo sapiens (Human)) as the system for N#Cc1ccc(CN(Cc2ccccc2)S(=O)(=O)c2ccc(C(=O)O)cc2)cc1 [Example 5-91]
> 80%

All figures here come from patent US9247759B2.
